experiment.notes: modulators of S6 phosphorylation in cells, primary screen, cell-based, A549, cytoblot, luminescence, serum-stimulated (AID 1158);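 also: serum-stimulated A549 lung adenocarcinoma cells; signal is phosphorylated S6 detected by cytoblot immunostaining with HRP secondary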
cond: A549 phospho-S6 cytoblot, 5 h, higher = more signal
Tick 1 if z-score is 0.1 or greater. Tick -1 if z-score is less than 0.1.

C[C@@H]1ON(c2ccc(C(=O)OC(C)(C)C)cc2)[C@H](c2ccc(O)cc2)[C@H]1C(=O)N1C(=O)OC[C@H]1Cc1ccccc1    1
COCCCNC(=O)[C@]1(CCS(=O)(=O)c2ccccc2)N=C(c2ccc(OCCCO)cc2)O[C@@H]1c1ccccc1CN=[N+]=[N-]    -1
CC(=O)NCCCC[C@@H]1NC(=O)[C@@H]2C[C@H](C(=O)NCCCC[N+](C)(C)C)[C@H](c3ccc(O)cc3)N2C1=O    1

Ask: Dear colleague, could you confirm whether "C=CCN1C(=O)[C@@]2(O[C@@H](CCn3cc([C@H](O)c4ccccc4)nn3)[C@H]([Si](C)(C)c3ccc(OC)cc3)[C@H]2C)c2cc(N3CCC3=O)ccc21" has z-score at or above 0.1?
Result: -1

----------
study.system: Fibroblast growth factor 10 (Homo sapiens) (UniProt O15520)
Sequence (O15520 whole entry, looked up): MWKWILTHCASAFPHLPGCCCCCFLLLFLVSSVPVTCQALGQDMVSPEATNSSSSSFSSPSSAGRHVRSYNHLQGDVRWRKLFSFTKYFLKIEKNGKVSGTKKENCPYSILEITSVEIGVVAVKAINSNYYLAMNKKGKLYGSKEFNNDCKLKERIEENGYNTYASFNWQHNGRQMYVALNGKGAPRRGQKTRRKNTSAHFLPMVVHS
experiment.notes: FGF10 binders on small-molecule microarrays, primary screen, biochemical, small-molecule microarray, 635 nm fluorescence (AID 1102)
cond: FGF10 binding, fluorescence 635 nm, higher = more signal
Tick y if composite z-score is 0.9 or greater. Tick n if composite z-score is less than 0.9.

Record excerpt, results attached:
COc1cc(OC)c(C(O)C2C=CC3C(=O)N(c4ccccc4)C(=O)C3N2Nc2ccccc2)cc1Br (stereo not given)    n
CC1=C([C@H](O)CCc2ccccc2)[C@H](CO)[C@@H]2C(=O)N(C)C(=O)[C@@H]2C1    n
C=CCOC(=O)[C@H]1[C@@H]2C(=O)O[C@@H](c3ccccc3)[C@@H](c3ccccc3)N2[C@@H](c2ccc(OCCOC(=O)[C@H]3C[C@H]4C(=O)N[C@@H](CC(C)C)C(=O)N4[C@H]3c3cccc(OCCO)c3)cc2)[C@]12C(=O)Nc1ccc(I)cc12    y
O=C1c2ccccc2[C@](Cc2ccccc2I)(C(=O)NCC(F)(F)F)[C@H](c2ccc(CO)cc2)N1C1CCCCC1    y

Ask: Dear colleague, could you confirm whether CN1C(=O)C2C=CC(C(O)c3cccc(O)c3)N(Nc3ccccc3)C2C1=O (stereo not given) has composite z-score at or above 0.9?
Result: n

Ask: Dear colleague, could you confirm whether "CC(C)C[C@@H]1NC(=O)[C@@H]2C[C@H](C(=O)NCCCCCN)[C@H](c3ccc(O)cc3)N2C1=O" has composite z-score at or above 0.9?
Result: n

Ask: Dear colleague, could you confirm whether "CCCC[C@@H](O)C1=C(COc2ccccc2)C[C@H]2C(=O)N(C)C(=O)[C@H]2[C@H]1CO" has composite z-score at or above 0.9?
Result: n

Ask: Dear colleague, could you confirm whether "C[N+](C)(C)CCCCCCNC(=O)[C@H]1C[C@H]2C(=O)NCC(=O)N2[C@H]1c1ccc(O)cc1" has composite z-score at or above 0.9?
Result: y

Ask: Dear colleague, could you confirm whether "COCCCNC(=O)[C@@]1(Cc2ccccc2N=[N+]=[N-])COC(c2ccc(OCCCO)cc2)=N1" has composite z-score at or above 0.9?
Result: n
